The molecules listed here are annotated with their survival.
# System: DeltatarO mutant
# procedure_summary: S. aureus survival, RN4220 and DeltatarO strains – OD600, teichoic acid synthesis inhibitors, primary screen (AID 463173)
# assay_context: S. aureus RN4220 wild type/DeltatarO growth, OD600, 18 h, active compounds read low, screened at 18.75 µg/mL (by protocol)
The whole screen tested about 52,000 compounds, of which about 4,300 (8.3%) were called active. The full list was thinned out, with actives kept by preference.
attribute_measured: survival

molecule	measurement_target	result
CCOC(=O)c1c(C)[nH]c(C)c1S(=O)(=O)NCC(=O)N1CCN(c2ccccc2F)CC1	DeltatarO mutant	76% (inactive)
O=C(CNS(=O)(=O)c1cccs1)N1CCN(c2ccccc2Cl)CC1	DeltatarO mutant	45% (active)
CCCOc1ccc(-c2cc(C(F)(F)F)c(C#N)c(SCCC(=O)O)n2)cc1	DeltatarO mutant	29% (active)
CC(C)(C)NC(=O)c1cccc(NC(=O)c2ccco2)c1	DeltatarO mutant	101% (inactive)
CC(=O)c1cccc(Nc2ncnc3c2cnn3C)c1	DeltatarO mutant	67% (inactive)
Cc1cc(Br)ccc1NC(=O)c1coc(=O)c2ccccc12	DeltatarO mutant	90% (inactive)
CC(=O)c1cccc(NC(=O)c2cc(-c3ccc(Cl)s3)nc3ccccc23)c1	DeltatarO mutant	77% (inactive)
Cc1ccc(-c2cc(C(F)(F)F)c(C#N)c(SCC(=O)O)n2)cc1	DeltatarO mutant	66% (inactive)
C=CCn1c(NC)nc2c1c(=O)[nH]c(=O)n2C	DeltatarO mutant	105% (inactive)
CCOC(=O)c1c(C)oc2nc(C)nc(NCc3cccc(OC)c3)c12	DeltatarO mutant	72% (inactive)
Oc1ccc(Nc2ncnc3ccccc23)cc1	DeltatarO mutant	77% (inactive)
Fc1ccc(Nc2nc(SCc3ccc(Cl)cc3)nc3ccccc23)cc1	DeltatarO mutant	92% (inactive)
Cc1sc2c(c1C)c(=O)n(Cc1ccccc1)c(=O)n2Cc1ccc(F)cc1	DeltatarO mutant	109% (inactive)
Cc1cccc(Nc2cc(C)nc3nc(-c4ccccc4)nn23)c1	DeltatarO mutant	95% (inactive)
O=C(CNS(=O)(=O)c1cccs1)N1CCN(c2ccccc2F)CC1	DeltatarO mutant	51% (inactive)
COc1cccc(N2CCN(C(=O)C3CCC(CNS(=O)(=O)c4ccc(Br)s4)CC3)CC2)c1 (stereo unspecified)	DeltatarO mutant	78% (inactive)

###

# System: DeltatarO mutant
# procedure_summary: S. aureus survival, RN4220 and DeltatarO strains – OD600, teichoic acid synthesis inhibitors, primary screen (AID 463173)
# assay_context: S. aureus RN4220 wild type/DeltatarO growth, OD600, 18 h, active compounds read low, screened at 18.75 µg/mL (by protocol)
Hit rate of the full screen: of about 52,000 compounds, about 4,300 (8.3%) were called active. Many of the other results were omitted from the sample, so actives are more common in it than they were.
The compounds listed here are annotated with their survival.

compound	survival
CCS(=O)(=O)N1CCc2cc(C(=O)Nc3cc(Cl)ccc3C)ccc21	72% (inactive)
Cc1ccc(CCNC(=O)c2cn(C)c3ccc(S(=O)(=O)N4CCC(C)CC4)cc3c2=O)cc1	72% (inactive)
CC(C)(C)c1ccc(CSC2=Nc3ccccc3C3=NC(CC(=O)NCc4cccs4)C(=O)N23)cc1 (stereo not drawn)	68% (inactive)

###

# Tested on: DeltatarO mutant
# procedure_summary: S. aureus survival, RN4220 and DeltatarO strains – OD600, teichoic acid synthesis inhibitors, primary screen (AID 463173)
# assay_context: S. aureus RN4220 wild type/DeltatarO growth, OD600, 18 h, active compounds read low, screened at 18.75 µg/mL (by protocol)
The campaign covered roughly 52,000 compounds. About 4,300 (8.3%) were called active. The full list was thinned out, with actives kept by preference.
Just so you know, the groups by survival go like this: lower segment = under 60%, middle segment = from 60% up to 90%, upper segment = 90% and over

compound	assigned_label
CCC(=O)C1=C(c2cccc([N+](=O)[O-])c2)N(C(=O)CC)n2c(nnc2-c2ccccc2)S1	lower segment
CCc1ccc(NC(=O)C(Cc2ccccc2)NS(=O)(=O)c2ccc3c(c2)c(=O)n(C)c(=O)n3C)cc1 (configuration not stated)	lower segment
CCOc1cc(C(=O)Nc2ccc3c(c2)n(C)c(=O)c(=O)n3C)cc(OCC)c1OCC	middle segment
COc1ccc(CCn2cc3c(c2-c2ccccc2Br)c(=O)n(C)c(=O)n3C)cc1OC	middle segment
Cc1ccc(C(c2sc3nc(-c4ccco4)nn3c2O)N2CCCCC2)cc1 (configuration not stated)	upper segment
CCOC(=O)c1[nH]c(C)c(CCC(=O)NC(C)c2ccccc2)c1C (configuration not stated)	middle segment
CCC(=O)C1=C(c2ccc(OC)c(OC)c2)N(C(=O)CC)n2c(nnc2-c2ccc(C)cc2)S1	middle segment
CCc1ccc(NC(=O)C(NS(=O)(=O)c2cccs2)C(C)C)cc1 (configuration not stated)	lower segment
COc1cc(NC(=O)CSc2ccc(-c3sc(-c4ccccc4)nc3C)nn2)cc(OC)c1	lower segment
CCOC(=O)c1ccc(NC(=O)CSc2ccc(-c3sc(C)nc3C)nn2)cc1	lower segment
O=C(CSc1nnc(-c2cccs2)o1)N1c2ccccc2CCc2ccccc21	middle segment
CCCC(=O)C1=C(c2ccc(C)cc2)N(C(=O)CCC)n2cnnc2S1	upper segment
N#Cc1ccccc1Cn1c(=O)n(-c2ccc(F)c(Cl)c2)c(=O)c2sccc21	upper segment

Value source: PubChem BioAssay AID463173
